Data origin: patent US7090834B1

This section presents binders with their documented relative binding affinity (ratio to native VEGF (8-109)) values.
Target: T1, Flt-IgG (UniProt P17948 27-758, limits assumed)
T1 construct: also called chimeric Flt-human Fc molecule; not shown: human IgG Fc
T1 sequence (P17948 27-758 limits assumed): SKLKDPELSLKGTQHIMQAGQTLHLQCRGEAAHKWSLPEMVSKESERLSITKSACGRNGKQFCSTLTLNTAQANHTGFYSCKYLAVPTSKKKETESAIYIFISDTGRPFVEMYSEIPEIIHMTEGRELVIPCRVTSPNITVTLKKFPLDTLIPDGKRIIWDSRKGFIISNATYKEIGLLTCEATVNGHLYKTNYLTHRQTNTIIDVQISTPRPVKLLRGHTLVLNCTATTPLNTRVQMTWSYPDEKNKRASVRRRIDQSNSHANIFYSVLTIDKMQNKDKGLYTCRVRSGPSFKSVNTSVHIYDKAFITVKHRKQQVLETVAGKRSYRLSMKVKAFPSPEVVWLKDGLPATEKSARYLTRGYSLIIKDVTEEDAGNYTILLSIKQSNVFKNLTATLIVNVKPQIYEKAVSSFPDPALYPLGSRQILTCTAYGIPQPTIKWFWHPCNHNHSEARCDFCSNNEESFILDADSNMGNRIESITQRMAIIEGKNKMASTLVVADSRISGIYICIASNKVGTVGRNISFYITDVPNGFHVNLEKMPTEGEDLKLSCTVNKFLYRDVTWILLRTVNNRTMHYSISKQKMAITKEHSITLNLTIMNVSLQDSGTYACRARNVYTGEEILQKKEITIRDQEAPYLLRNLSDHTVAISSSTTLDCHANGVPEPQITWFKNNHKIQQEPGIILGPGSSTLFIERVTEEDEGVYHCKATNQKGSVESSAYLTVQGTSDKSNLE
Experiment: competition ELISA vs biotinylated native VEGF for Flt-IgG
Method: Receptor binding assays were performed in 96-well immunoplates (Maxisorp, Nunc-Immunoplate, Nalge Nunc International, Rochester, N.Y.). […] Aliquots of the mixture (100 μl) were added to the precoated microtiter wells and the plate was incubated for 2 hours at room temperature. […] Absorbance was read at 450 nm on a Vmax plate reader (Molecular Devices, Menlo Park, Calif.).
Measured metric: relative binding affinity (ratio to native VEGF (8-109))

{"columns": ["Binder", "Recorded result"],
 "data": [
  ["LK-VRB-8s* (ligand) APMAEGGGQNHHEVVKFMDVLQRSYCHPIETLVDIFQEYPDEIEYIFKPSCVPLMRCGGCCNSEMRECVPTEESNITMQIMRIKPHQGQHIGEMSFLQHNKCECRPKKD", "> 21000 ratio"],
  ["LK-VRB-7s* (ligand, human, UniProt P15692-4 27-135, looked up) APMAEGGGQNHHEVVKFEDVYQRSYCHPIETLVDIFQEYPDEIEYIFKPSCVPLMRCGGCCNSEMRECVPTEESNITMQIMRIKPHQGQHIGEMSFLQHNKCECRPKKD", "> 15000 ratio"],
  ["LK-VRB-9s (ligand, human, UniProt P15692-4 27-135, looked up) APMAEGGGQNHHEVVKFMDVYRRSYCHPIETLVDIFQEYPDEIEYIFKPSCVPLMRCGGCCNSEMRECVPTEESNITMQIMRIKPHQGQHIGEMSFLQHNKCECRPKKD", "300 ratio"],
  ["LK-VRB-1s* (ligand, human, UniProt P15692-4 27-135, looked up) APMAEGGGQNHHEVVKFEDVLRRSSCHPIETLVDIFQEYPDEIEYIFKPSCVPLMRCGGCCNDEGLECVPTEESNITMQIMRIKPHQGQHIGEMSFLQHNKCECRPKKD", "6000 ratio"],
  ["LK-VRB-3s (ligand, human, UniProt P15692-4 27-135, looked up) APMAEGGGQNHHEVVKIEDVFKRSSCHPIETLVDIFQEYPDEIEYIFKPSCVPLMRCGGCCNDEGLECVPTEESNITMQIMRIKPHQGQHIGEMSFLQHNKCECRPKKD", "400 ratio"]
]}
